# tested.system: Caspase 3 (Homo sapiens)
# Sequence (P42574 29-175 limits assumed): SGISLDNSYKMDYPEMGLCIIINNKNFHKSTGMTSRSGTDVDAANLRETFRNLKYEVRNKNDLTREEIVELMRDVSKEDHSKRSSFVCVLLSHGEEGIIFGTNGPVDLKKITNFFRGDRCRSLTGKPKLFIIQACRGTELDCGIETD
# Sequence (P42574 176-277 limits assumed): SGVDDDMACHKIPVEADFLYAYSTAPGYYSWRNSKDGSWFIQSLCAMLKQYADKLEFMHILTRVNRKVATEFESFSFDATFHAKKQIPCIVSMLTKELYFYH
measurement.type: IC50 (nM)

P: Cc1ccc(N2C(=O)c3c(C)nc4ccc(S(=O)(=O)N5CCOCC5)cc4c3C2=O)cc1 [MO13]
Q: C#Cc1cccc(N2C(=O)c3c(C)nc4ccc(S(=O)(=O)N5CCCCC5)cc4c3C2=O)c1 [PE5]
I'm curious whether P or Q has the smaller IC50 number. Which is it? Please identify the chosen entry by its label.
P

---

# tested.system: Caspase 1 (Homo sapiens)
# Construct: purchased Raybiotech Company 68FL-Casp1-S200
# Sequence (P29466 120-297 limits assumed): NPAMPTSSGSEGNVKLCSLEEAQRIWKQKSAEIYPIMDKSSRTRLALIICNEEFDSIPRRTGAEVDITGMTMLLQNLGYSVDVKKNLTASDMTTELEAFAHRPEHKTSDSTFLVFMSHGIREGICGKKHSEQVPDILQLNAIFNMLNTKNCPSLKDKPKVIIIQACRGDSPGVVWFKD
# Sequence (P29466 317-404 limits assumed): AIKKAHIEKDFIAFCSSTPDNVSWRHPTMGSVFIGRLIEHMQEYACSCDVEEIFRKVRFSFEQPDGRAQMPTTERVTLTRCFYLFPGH
# experimental.protocol: Caspase 1 inhibitor screening and IC50 assay (direct fluorometric enzyme assay)
# Type: biochemical
# details: calculated by Graphpad PRISM 7; read-out: IC50 (nM) against Caspase 1
measurement.type: IC50 (nM)

A: Cc1cc(N2C(=O)c3c(C)nc4ccc(S(=O)(=O)N5CCOCC5)cc4c3C2=O)c2ccccc2n1 [MO4]
B: Cc1ccc(N2C(=O)c3c(C)nc4ccc(S(=O)(=O)N5CCOCC5)cc4c3C2=O)cc1 [MO13]
Between the two listed entries A and B , which has its IC50 at the higher number? Please identify the chosen entry by its label.
B
(B: 361 nM, A: 178 nM)
